Tested on: Pseudomonas aeruginosa
Assay: In vitro antibacterial activity, agar dilution MIC (Experiment 1)
Format: cell-based
Conditions: agar dilution (Table 3), read-out: MIC90
Method: Tested strains: all the clinically separated strains below were purchased from public facilities. Escherichia coli ATCC25922, Pseudomonas aeruginosa ATCC27853, Klebsiella pneumoniae ATCC700603, and the like. Tested Samples: Imipenem, Ceftazidime: Commercial Products, the Following Experiments were Carried Out According to the Content of an Effective Ingredient in Each Commercial Product; […]
Reported values of MIC90 for individual entries
Give the number; µg/mL is assumed, so skip it.

C[C@@H](O)[C@H](NC(=O)c1ccc(C#CC#Cc2ccc(CNCCOCCO)s2)cc1)C(=O)NO [Compound 42]    4
C[C@@H](O)[C@H](NC(=O)c1ccc(C#CC#Cc2ccc(CN3CCOCC3)o2)cc1)C(=O)NO [Compound 23]    8

INPUT: What value of MIC90 has been reported for the following compound? C[C@@H](O)[C@H](NC(=O)c1ccc(C#Cc2ccc(-c3ccnn3C)nc2)cc1)C(=O)NO [Compound 40]
OUTPUT: 1

====

experiment: Pharmacokinetics (PK) determination in SD rats (Experiment 4); assay type: in vivo; details: IV 2 mg/kg, plasma
recorded metric: log10 Vz_obs (log10 of the value in L/kg)
Recall that a logarithmic scale is used here: each number is log10 of Vz_obs in L/kg.

C[C@@H](O)[C@H](NC(=O)c1ccc(/C=C/C=C/c2ccc(CO)o2)nc1)C(=O)NO    0.63
C[C@@H](O)[C@H](NC(=O)c1ccc(C#CC#Cc2ccc(COCCOCCO)o2)cc1)C(=O)NO    -0.48
C[C@@H](O)[C@H](NC(=O)c1ccc(C#CC#Cc2ccc(CN3CCN(C)CC3)o2)cc1)C(=O)NO    0.32
CNCc1ccc(C#CC#Cc2ccc(C(=O)N[C@H](C(=O)NO)[C@@H](C)O)cc2)o1    0.20
C[C@@H](O)[C@H](NC(=O)c1ccc(C#CC#Cc2ccc(CN(C)C)o2)cc1)C(=O)NO    0.24
C[C@@H](O)[C@H](NC(=O)c1ccc(C#CC#Cc2ccc(CN3CCOCC3)s2)cc1)C(=O)NO    -0.06

Kindly review the next compound as well.
INPUT: Name the recorded log10 Vz_obs for C[C@@H](O)[C@H](NC(=O)c1ccc(C#CC#Cc2ccc(CN3CCOCC3)o2)cc1)C(=O)NO .
OUTPUT: -0.28

====

Each record here notes measured log10(AUC(0-t)).
assay: Pharmacokinetics (PK) determination in SD rats (Experiment 4); assay type: in vivo; details: Sprague-Dawley (SD), rat, plasma, iv, 2 mg/kg
Values reflect log10 of reported AUC(0-t) (ng·h/mL).

CC(O)[C@H](NC(=O)c1ccc(C#CC#Cc2ccc(CO)o2)cc1)C(=O)NO (stereo in doubt)    3.60
C[C@@H](O)[C@H](NC(=O)c1ccc(C#CC#Cc2ccc(CNCCOCCO)s2)cc1)C(=O)NO    2.60
C[C@@H](O)[C@H](NC(=O)c1ccc(C#CC#Cc2ccc(CN(C)C)o2)cc1)C(=O)NO    2.62
CNCc1ccc(C#CC#Cc2ccc(C(=O)N[C@H](C(=O)NO)[C@@H](C)O)cc2)o1    3.12
C[C@@H](O)[C@H](NC(=O)c1ccc(C#CC#Cc2ccc(CN3CCOCC3)o2)cc1)C(=O)NO    3.06
C[C@@H](O)[C@H](NC(=O)c1ccc(C#CC#Cc2ccc(COCCOCCO)o2)cc1)C(=O)NO    3.15
C[C@@H](O)[C@H](NC(=O)c1ccc(C#CC#Cc2ccc(CO)n2C)cc1)C(=O)NO    2.82
Cn1nc(CO)cc1-c1ccc(C#Cc2ccc(C(=O)N[C@H](C(=O)NO)C(C)(C)N)cc2)cc1    2.60

INPUT: Could you tell me which log10(AUC(0-t)) is on file for C[C@@H](O)[C@H](NC(=O)c1ccc(C#CC#Cc2ccc(CN3CCOCC3)s2)cc1)C(=O)NO ?
OUTPUT: 2.96

INPUT: Which value of log10(AUC(0-t)) has been reported for Cn1nccc1-c1ccc(C#Cc2ccc(-c3ccn(CCC(C)(C(=O)NO)S(C)(=O)=O)c(=O)c3)cc2)cc1 (stereo not drawn) in the records?
OUTPUT: 3.29

INPUT: Look up log10(AUC(0-t)): Cc1cc(C#CC#Cc2ccc(C(=O)N[C@H](C(=O)NO)[C@@H](C)O)cc2)oc1CO
OUTPUT: 3.44

INPUT: Which value of log10(AUC(0-t)) has been reported for C[C@@H](O)[C@H](NC(=O)c1ccc(C#CC#Cc2ccc(CN3CCN(C)CC3)o2)cc1)C(=O)NO in the records?
OUTPUT: 2.69

INPUT: # query: log10(AUC(0-t)) of entry C[C@@H](O)[C@H](NC(=O)c1ccc(C#CC#Cc2ccc(CO)s2)cc1)C(=O)NO
OUTPUT: 3.20

INPUT: Any idea what its log10(AUC(0-t)) is? The molecule is CNC(=O)C(C(=O)NO)N(C)C(=O)c1ccc(C#CC#Cc2ccc(CO)o2)cc1 (stereo not drawn)
OUTPUT: 3.91

INPUT: # get_value(readout='log10(AUC(0-t))', item= C[C@@H](O)[C@H](NC(=O)c1ccc(/C=C/C=C/c2ccc(CO)o2)nc1)C(=O)NO )
OUTPUT: 2.54

The measured values listed here are drawn from patent US11498909B2.
